Tested on: K. pneumoniae ATCC BAA-1705
Assay: Broth microdilution MIC, reference strain
Format: cell-based, Klebsiella pneumoniae
Details: ATCC BAA-1705
Procedure: Staphylococcus aureus ATCC 25923, Pseudomonas aeruginosa ATCC 27853 and Klebsiella pneumoniae ATCC BAA-1705 (carbapenemase producer) were obtained from the American Type Culture Collection (Rockville, MD). […] Minimal inhibitory concentrations (MIC) of all the peptides were determined in Mueller–Hinton medium by the broth microdilution assay, following the procedure already described[22]^,[34]. […]
Where a SMILES comes first, the peptide text is derived from it. [ ]: non-standard residue; d: D form. The star is where a group is joined. Heptanoyl = CCCCCCC(=O)*; Orn = NCCC[C@H](N)C(=O)O; Pentanoyl = CCCCC(=O)*
MEASUREMENT TYPE: Antimicrobial activity (MIC) K. pneumoniae ATCC BAA-1705 (µM)
Answer with a number only, understood to be in µM.

Here are 2 compounds together with their reported answers.
[
  {
    "COMPOUND": "CCCCC(=O)N[C@@H](Cc1ccccc1)C(=O)N[C@H](C(=O)N1CCC[C@H]1C(=O)N[C@@H](Cc1c[nH]c2ccccc12)C(=O)N[C@@H](Cc1ccccc1)C(=O)N[C@@H](CO)C(=O)N[C@@H](CCCCN)C(=O)N[C@@H](Cc1ccccc1)C(=O)N[C@H](CC(C)C)C(=O)N[C@H](CCCCN)C(=O)N[C@@H](CCCNC(=N)N)C(=O)N[C@H](C(=O)N[C@@H](CC(C)C)C(N)=O)[C@@H](C)CC)C(C)C [Compound 2B] (Pentanoyl-FVPWFSKF[dL][dK]RIL-NH2)",
    "MEASURED VALUE": 50
  },
  {
    "COMPOUND": "CCCCCCC(=O)N[C@@H](Cc1ccccc1)C(=O)N[C@H](C(=O)N1CCC[C@H]1C(=O)N[C@@H](Cc1c[nH]c2ccccc12)C(=O)N[C@@H](Cc1ccccc1)C(=O)N[C@@H](CO)C(=O)N[C@@H](CCCCN)C(=O)N[C@@H](Cc1ccccc1)C(=O)N[C@H](CC(C)C)C(=O)N[C@H](CCCCN)C(=O)N[C@@H](CCCNC(=N)N)C(=O)N[C@H](C(=O)N[C@@H](CC(C)C)C(N)=O)[C@@H](C)CC)C(C)C [Compound 3B] (Heptanoyl-FVPWFSKF[dL][dK]RIL-NH2)",
    "MEASURED VALUE": 50
  }
]

# Antimicrobial activity (MIC) K. pneumoniae ATCC BAA-1705 lookup, item CCCCC(=O)NCCC[C@H](NC(=O)[C@H](CC(C)C)NC(=O)[C@@H](NC(=O)[C@H](CCCNC(=N)N)NC(=O)[C@@H](CCCCN)NC(=O)[C@@H](CC(C)C)NC(=O)[C@H](Cc1ccccc1)NC(=O)[C@H](CCCCN)NC(=O)[C@H](CO)NC(=O)[C@H](Cc1ccccc1)NC(=O)[C@H](Cc1c[nH]c2ccccc12)NC(=O)[C@@H]1CCCN1C(=O)[C@@H](NC(=O)[C@@H](N)Cc1ccccc1)C(C)C)[C@@H](C)CC)C(N)=O [D] (H-FVPWFSKF[dL][dK]RIL[Orn](Pentanoyl)-NH2)
50

* * *

Tested on: K. pneumoniae ATCC BAA-1705
Assay: Broth microdilution MIC, reference strain
Assay type: cell-based, Klebsiella pneumoniae
Settings: ATCC BAA-1705
Where a SMILES comes first, the peptide text is derived from it. [ ]: non-standard residue; d: D form. The star is where a group is joined. Phe(4-NH2) = Nc1ccc(C[C@H](N)C(=O)O)cc1; Heptanoyl = CCCCCCC(=O)*; Orn = NCCC[C@H](N)C(=O)O; Pentanoyl = CCCCC(=O)*
Antimicrobial activity (MIC) K. pneumoniae ATCC BAA-1705 values, listed per item
Answer with a number only, understood to be in µM.

[
  {
    "MOLECULE": "CCCCC(=O)Nc1ccc(C[C@H](N)C(=O)N[C@H](C(=O)N2CCC[C@H]2C(=O)N[C@@H](Cc2c[nH]c3ccccc23)C(=O)N[C@@H](Cc2ccccc2)C(=O)N[C@@H](CO)C(=O)N[C@@H](CCCCN)C(=O)N[C@@H](Cc2ccccc2)C(=O)N[C@H](CC(C)C)C(=O)N[C@H](CCCCN)C(=O)N[C@@H](CCCNC(=N)N)C(=O)N[C@H](C(=O)N[C@@H](CC(C)C)C(N)=O)[C@@H](C)CC)C(C)C)cc1 [C] (H-[Phe(4-NH2)](Pentanoyl)VPWFSKF[dL][dK]RIL-NH2)",
    "TEST TARGET": "K. pneumoniae ATCC BAA-1705",
    "MEASURED VALUE": 6.25
  }
]

Here is another molecule to look at.
# Antimicrobial activity (MIC) K. pneumoniae ATCC BAA-1705 lookup, item CCCCCCC(=O)NCCC[C@H](NC(=O)[C@H](CC(C)C)NC(=O)[C@@H](NC(=O)[C@H](CCCNC(=N)N)NC(=O)[C@@H](CCCCN)NC(=O)[C@@H](CC(C)C)NC(=O)[C@H](Cc1ccccc1)NC(=O)[C@H](CCCCN)NC(=O)[C@H](CO)NC(=O)[C@H](Cc1ccccc1)NC(=O)[C@H](Cc1c[nH]c2ccccc12)NC(=O)[C@@H]1CCCN1C(=O)[C@@H](NC(=O)[C@@H](N)Cc1ccccc1)C(C)C)[C@@H](C)CC)C(N)=O [E] (H-FVPWFSKF[dL][dK]RIL[Orn](Heptanoyl)-NH2)
50

* * *

System: S. aureus ATCC 25923
Assay: microbe, parasite or virus in culture
Settings: 100% growth inhibition after 16–18 h at 37 °C
Where a SMILES comes first, the peptide text is derived from it. [ ]: non-standard residue; d: D form. The star is where a group is joined. Tridecanoyl = CCCCCCCCCCCCC(=O)*; Undecanoyl = CCCCCCCCCCC(=O)*
MEASUREMENT TYPE: Antimicrobial activity (MIC) S. aureus ATCC 25923

Here are 2 molecules together with their reported answers.
[
  {
    "MOLECULE": "CCCCCCCCCCC(=O)N[C@@H](Cc1ccccc1)C(=O)N[C@H](C(=O)N1CCC[C@H]1C(=O)N[C@@H](Cc1c[nH]c2ccccc12)C(=O)N[C@@H](Cc1ccccc1)C(=O)N[C@@H](CO)C(=O)N[C@@H](CCCCN)C(=O)N[C@@H](Cc1ccccc1)C(=O)N[C@H](CC(C)C)C(=O)NCC(=O)N[C@@H](CCCNC(=N)N)C(=O)N[C@H](C(=O)N[C@@H](CC(C)C)C(N)=O)[C@@H](C)CC)C(C)C [Compound 4A] (Undecanoyl-FVPWFSKF[dL]GRIL-NH2)",
    "MEASURED VALUE": "> 100 µM"
  },
  {
    "MOLECULE": "CCCCCCCCCCC(=O)N[C@@H](Cc1ccccc1)C(=O)N[C@H](C(=O)N1CCC[C@H]1C(=O)N[C@@H](Cc1c[nH]c2ccccc12)C(=O)N[C@@H](Cc1ccccc1)C(=O)N[C@@H](CO)C(=O)N[C@@H](CCCCN)C(=O)N[C@@H](Cc1ccccc1)C(=O)N[C@H](CC(C)C)C(=O)N[C@H](CCCCN)C(=O)N[C@@H](CCCNC(=N)N)C(=O)N[C@H](C(=O)N[C@@H](CC(C)C)C(N)=O)[C@@H](C)CC)C(C)C [Compound 4B] (Undecanoyl-FVPWFSKF[dL][dK]RIL-NH2)",
    "MEASURED VALUE": "> 100 µM"
  }
]

Which Antimicrobial activity (MIC) S. aureus ATCC 25923 is reported with S. aureus ATCC 25923 for this entry: CC[C@H](C)[C@H](NC(=O)[C@H](CCCNC(=N)N)NC(=O)CNC(=O)[C@@H](CC(C)C)NC(=O)[C@H](Cc1ccccc1)NC(=O)[C@H](CCCCN)NC(=O)[C@H](CO)NC(=O)[C@H](Cc1ccccc1)NC(=O)[C@H](Cc1c[nH]c2ccccc12)NC(=O)[C@@H]1CCCN1C(=O)[C@@H](NC(=O)[C@@H](N)Cc1ccccc1)C(C)C)C(=O)N[C@@H](CC(C)C)C(N)=O [Compound 1A] (H-FVPWFSKF[dL]GRIL-NH2) ?
6.25 µM

Which Antimicrobial activity (MIC) S. aureus ATCC 25923 is reported with S. aureus ATCC 25923 for this entry: CCCCCCCCCCCCC(=O)N[C@@H](Cc1ccccc1)C(=O)N[C@H](C(=O)N1CCC[C@H]1C(=O)N[C@@H](Cc1c[nH]c2ccccc12)C(=O)N[C@@H](Cc1ccccc1)C(=O)N[C@@H](CO)C(=O)N[C@@H](CCCCN)C(=O)N[C@@H](Cc1ccccc1)C(=O)N[C@H](CC(C)C)C(=O)NCC(=O)N[C@@H](CCCNC(=N)N)C(=O)N[C@H](C(=O)N[C@@H](CC(C)C)C(N)=O)[C@@H](C)CC)C(C)C [Compound 5A] (Tridecanoyl-FVPWFSKF[dL]GRIL-NH2) ?
> 100 µM

Which Antimicrobial activity (MIC) S. aureus ATCC 25923 is reported with S. aureus ATCC 25923 for this entry: CCCCCCCCCCCCC(=O)N[C@@H](Cc1ccccc1)C(=O)N[C@H](C(=O)N1CCC[C@H]1C(=O)N[C@@H](Cc1c[nH]c2ccccc12)C(=O)N[C@@H](Cc1ccccc1)C(=O)N[C@@H](CO)C(=O)N[C@@H](CCCCN)C(=O)N[C@@H](Cc1ccccc1)C(=O)N[C@H](CC(C)C)C(=O)N[C@H](CCCCN)C(=O)N[C@@H](CCCNC(=N)N)C(=O)N[C@H](C(=O)N[C@@H](CC(C)C)C(N)=O)[C@@H](C)CC)C(C)C [Compound 5B] (Tridecanoyl-FVPWFSKF[dL][dK]RIL-NH2) ?
> 100 µM
